Below is a list of entries, each paired with its recorded log10 of IC50 value.
target under test: xanthine oxidase (Homo sapiens (Human))
method: Fluorescence-based xanthine oxidase activity assay
Type: biochemical
condition parameters: read-out: Xanthine Oxidase IC50
reported endpoint: log10 of IC50 (log10 of the value in µM)

Nc1[nH]c(=O)[nH]c(=O)c1C(=O)Nc1ccc(-c2c[nH]nn2)cc1 ... 0.11
O=C(NC1CCC(O)(c2c[nH]nn2)CC1)c1c(O)[nH]c(=O)[nH]c1=O (stereo not drawn) ... 1.12
Cn1c(=O)c2c(Nc3ccc(-c4cnn[nH]4)cc3)n[nH]c2n(C)c1=O ... 0.40
N=C(Nc1ccc(-c2cnn[nH]2)cc1)c1c(O)[nH]c(=O)[nH]c1=O ... -0.60
O=C(NO)c1cc(NC(=O)c2c(O)[nH]c(=O)[nH]c2=O)ccn1 ... 1.87
COc1nc(O)c(C(=O)Nc2ccc(-c3cnn[nH]3)cc2)c(=O)[nH]1 ... -0.25
O=c1[nH]c(=O)c2c(Nc3ccc(-c4cnn[nH]4)cc3)n[nH]c2[nH]1 ... -0.85
Cn1c(O)c(C(=N)Nc2ccc(-c3cnn[nH]3)cc2)c(=O)n(C)c1=O ... -0.70
Cn1c(O)c(C(=O)Nc2ccc(-c3cnn[nH]3)cc2)c(=O)n(C)c1=O ... 0.20
O=c1nc2[nH]n(-c3ccc(-c4cnn[nH]4)cc3)c(=O)c2c(O)[nH]1 ... 0.85
O=C1NS(=O)(=O)c2cc(NC(=O)c3c(O)[nH]c(=O)[nH]c3=O)ccc21 ... 0.65
Cn1c(=O)[nH]c(O)c(C(=O)Nc2ccc(-c3cnn[nH]3)cc2)c1=O ... -0.26
O=C(Nc1nc(O)c2cn[nH]c2n1)c1c(O)[nH]c(=O)[nH]c1=O ... 1.56
O=C(Nc1ccc(-c2[nH]nnc2-c2ccccc2)cc1)c1c(O)[nH]c(=S)[nH]c1=O ... 1.26
O=C(Nc1ccc2[nH]c(=O)[nH]c2c1)c1c(O)[nH]c(=O)[nH]c1=O ... 0.93
O=C(NO)c1ccc(NC(=O)c2c(O)[nH]c(=O)[nH]c2=O)cc1 ... 1.24

---

target under test: xanthine oxidase (Homo sapiens (Human), UniProt P47989)
Sequence (P47989 whole entry, species assumed): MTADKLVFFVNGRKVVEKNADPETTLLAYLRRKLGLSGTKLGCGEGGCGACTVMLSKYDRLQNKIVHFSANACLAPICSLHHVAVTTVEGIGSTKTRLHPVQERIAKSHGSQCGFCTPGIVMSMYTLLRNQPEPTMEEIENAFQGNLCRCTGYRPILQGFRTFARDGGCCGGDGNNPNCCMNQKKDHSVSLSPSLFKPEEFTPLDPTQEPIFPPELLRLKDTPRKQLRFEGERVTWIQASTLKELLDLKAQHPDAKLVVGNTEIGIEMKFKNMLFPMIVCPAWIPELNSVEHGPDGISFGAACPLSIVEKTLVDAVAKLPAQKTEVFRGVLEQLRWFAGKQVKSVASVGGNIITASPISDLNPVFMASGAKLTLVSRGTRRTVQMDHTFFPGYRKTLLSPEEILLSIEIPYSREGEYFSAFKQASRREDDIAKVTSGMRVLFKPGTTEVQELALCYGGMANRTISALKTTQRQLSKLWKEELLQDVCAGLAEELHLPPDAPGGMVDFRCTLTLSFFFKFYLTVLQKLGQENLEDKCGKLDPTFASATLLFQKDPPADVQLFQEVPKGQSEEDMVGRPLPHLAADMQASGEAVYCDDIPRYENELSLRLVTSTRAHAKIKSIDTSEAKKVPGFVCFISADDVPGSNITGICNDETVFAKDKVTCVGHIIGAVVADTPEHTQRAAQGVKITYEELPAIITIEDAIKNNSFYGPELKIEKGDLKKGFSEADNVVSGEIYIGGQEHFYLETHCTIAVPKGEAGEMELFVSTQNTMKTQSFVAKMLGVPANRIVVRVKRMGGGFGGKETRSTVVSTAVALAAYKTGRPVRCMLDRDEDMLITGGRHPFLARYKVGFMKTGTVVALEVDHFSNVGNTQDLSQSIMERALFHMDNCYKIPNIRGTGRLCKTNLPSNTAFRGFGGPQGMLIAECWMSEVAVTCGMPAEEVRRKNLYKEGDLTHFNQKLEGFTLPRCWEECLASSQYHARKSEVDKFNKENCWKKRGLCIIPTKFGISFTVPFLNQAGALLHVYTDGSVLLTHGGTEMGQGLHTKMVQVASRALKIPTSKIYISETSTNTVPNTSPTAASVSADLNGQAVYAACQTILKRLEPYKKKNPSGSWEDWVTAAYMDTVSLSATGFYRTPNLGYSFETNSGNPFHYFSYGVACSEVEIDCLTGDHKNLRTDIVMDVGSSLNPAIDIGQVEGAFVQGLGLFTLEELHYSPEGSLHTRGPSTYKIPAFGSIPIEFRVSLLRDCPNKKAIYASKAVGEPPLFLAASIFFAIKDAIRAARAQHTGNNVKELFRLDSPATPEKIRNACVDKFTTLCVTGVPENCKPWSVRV
method: Fluorescence-based xanthine oxidase activity assay
Type: biochemical
reported endpoint: IC50 (µM)

O=C(Nc1ccc(-c2noc(C(F)(F)F)n2)cc1)c1c(O)[nH]c(=O)[nH]c1=O ... 292
O=C(Nc1c(O)[nH]c(=O)[nH]c1=O)c1ccc(-c2cnn[nH]2)cc1 ... 6.3
Cn1c(=O)[nH]c(O)c(C(=N)Nc2ccc(-c3cnn[nH]3)cc2)c1=O ... 0.74

---

Listing of entries alongside the reported IC50.
target under test: xanthine oxidase (Homo sapiens (Human), UniProt P47989)
method: Fluorescence-based xanthine oxidase activity assay
Assay type: biochemical
reported endpoint: IC50 (µM)

O=c1[nH]c(O)c(/C(=N\O)Nc2ccc(-c3cnn[nH]3)cc2)c(=O)[nH]1 ... 1.2
CS/C(=N\c1ccc(-c2cnn[nH]2)cc1)c1c(O)[nH]c(=O)[nH]c1=O ... 54.1
